biological target: α4β7 integrin (Homo sapiens (Human), UniProt P13612+P26010); experiment: Integrin Adhesion Assay: Protocol 4 (MAdCAM-coated plate, RPMI-8866 cells with stable LOF mutation of the ITGB1 gene); format: cell-based; settings: Protocol 4; RPMI-8866 cells with LOF mutation of ITGB1, MAdCAM; read-out: Mean IC50 α4β7 KO
Sequence (P13612 34-1032): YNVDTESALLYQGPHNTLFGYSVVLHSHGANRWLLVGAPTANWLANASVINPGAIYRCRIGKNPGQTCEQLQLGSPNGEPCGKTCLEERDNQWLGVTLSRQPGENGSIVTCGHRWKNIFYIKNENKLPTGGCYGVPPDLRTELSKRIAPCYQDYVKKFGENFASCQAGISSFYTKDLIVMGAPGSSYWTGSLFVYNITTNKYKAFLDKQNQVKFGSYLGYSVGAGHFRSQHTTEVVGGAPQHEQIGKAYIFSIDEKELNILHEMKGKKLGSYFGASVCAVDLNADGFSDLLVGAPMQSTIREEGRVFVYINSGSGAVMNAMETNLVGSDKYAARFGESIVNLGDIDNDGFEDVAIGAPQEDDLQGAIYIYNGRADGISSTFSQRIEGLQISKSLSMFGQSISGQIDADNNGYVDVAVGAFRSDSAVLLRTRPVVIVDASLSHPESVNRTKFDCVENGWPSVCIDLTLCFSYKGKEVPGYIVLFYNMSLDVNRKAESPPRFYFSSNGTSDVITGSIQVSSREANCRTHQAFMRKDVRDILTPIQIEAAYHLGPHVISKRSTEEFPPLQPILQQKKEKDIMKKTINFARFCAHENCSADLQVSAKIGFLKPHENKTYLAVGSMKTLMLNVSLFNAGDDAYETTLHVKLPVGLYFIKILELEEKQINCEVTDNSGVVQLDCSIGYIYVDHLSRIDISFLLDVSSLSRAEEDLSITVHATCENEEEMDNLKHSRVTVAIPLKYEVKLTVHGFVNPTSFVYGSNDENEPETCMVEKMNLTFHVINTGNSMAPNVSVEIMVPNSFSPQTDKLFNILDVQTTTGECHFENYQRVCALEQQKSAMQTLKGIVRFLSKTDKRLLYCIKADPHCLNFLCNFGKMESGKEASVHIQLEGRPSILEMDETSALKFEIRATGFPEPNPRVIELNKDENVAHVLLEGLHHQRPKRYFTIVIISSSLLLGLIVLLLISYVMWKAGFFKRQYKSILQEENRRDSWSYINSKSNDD
Sequence (P26010 20-798): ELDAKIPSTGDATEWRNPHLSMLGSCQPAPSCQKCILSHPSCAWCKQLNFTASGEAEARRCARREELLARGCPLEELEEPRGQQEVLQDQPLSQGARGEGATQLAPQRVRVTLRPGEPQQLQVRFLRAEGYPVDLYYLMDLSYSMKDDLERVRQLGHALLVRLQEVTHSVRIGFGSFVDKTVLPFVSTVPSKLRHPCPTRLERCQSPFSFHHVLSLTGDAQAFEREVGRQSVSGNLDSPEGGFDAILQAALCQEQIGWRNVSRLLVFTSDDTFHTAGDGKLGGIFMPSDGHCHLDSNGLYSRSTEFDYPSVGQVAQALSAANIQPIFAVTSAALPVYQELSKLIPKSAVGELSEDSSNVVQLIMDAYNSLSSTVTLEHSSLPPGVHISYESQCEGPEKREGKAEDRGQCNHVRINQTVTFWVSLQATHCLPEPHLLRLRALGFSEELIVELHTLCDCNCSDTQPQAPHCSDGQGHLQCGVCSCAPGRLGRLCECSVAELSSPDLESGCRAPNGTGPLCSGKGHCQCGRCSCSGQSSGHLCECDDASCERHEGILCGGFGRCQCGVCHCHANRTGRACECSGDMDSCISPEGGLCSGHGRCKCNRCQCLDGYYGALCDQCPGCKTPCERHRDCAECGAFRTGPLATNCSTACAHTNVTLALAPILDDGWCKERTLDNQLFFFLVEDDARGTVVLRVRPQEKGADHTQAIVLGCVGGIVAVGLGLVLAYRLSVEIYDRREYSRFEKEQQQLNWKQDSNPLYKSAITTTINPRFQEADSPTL
Reported IC50 values follow for various compounds

- compound: "COc1cccc(CCN2CCC(C)(C)CC2)c1-c1cccc2c(C[C@H](NC(=O)C3(C(F)(F)F)CCN(CC(F)(F)F)CC3)C(=O)O)cccc12 [Compound 960]"
  IC50: "< 10 nM"
- compound: "Cn1c(=O)c(-c2cccc3c(C[C@H](NC(=O)C4(C(F)(F)F)CCN(CC(F)(F)F)CC4)C(=O)O)cccc23)c(C(F)(F)F)c2cc(CN3CCC(F)CC3)ccc21 [Compound 833]"
  IC50: "< 10 nM"
- compound: "COc1cc(CN2CCCCC2)c2cccnc2c1-c1cccc2c(C[C@H](NC(=O)C3(C(F)(F)F)CCN(CC(F)(F)F)CC3)C(=O)O)cccc12 [Compound 728]"
  IC50: "< 10 nM"

According to the records, this compound COc1ccc(CN(C)C)c(Cl)c1-c1cccc2c(C[C@H](NC(=O)c3c(C)cccc3F)C(=O)O)cccc12 [Compound 1038] displays IC50 of < 10 nM

IC50 in this record for COc1c(CN2CCCCC2)ccnc1-c1cccc2c(C[C@H](NC(=O)c3c(C)cccc3F)C(=O)O)cccc12 [Compound 1020] : 10 to 100 nM

// recorded IC50 for CC[C@H]1CCCN1Cc1cnc(-c2cccc3c(C[C@H](NC(=O)C4(C(F)(F)F)CCN(CC(F)(F)F)CC4)C(=O)O)cccc23)c2ccccc12 [Compound 933] : < 10 nM

Notebook: COc1ccc(CN2CCCC(C)(C)C2)c(OC)c1-c1cccc2c(C[C@H](NC(=O)C3(C(F)(F)F)CCN(CC(F)(F)F)CC3)C(=O)O)cccc12 [Compound 791] , IC50 read as < 10 nM

The measured IC50 associated with COc1ccc(CN2CC(F)C2)c(OC)c1-c1cccc2c(C[C@H](NC(=O)C3(C(F)(F)F)CCN(CC(F)(F)F)CC3)C(=O)O)cccc12 [Compound 781] reads 10 to 100 nM

Record summary for Cc1cccc(F)c1C(=O)N[C@@H](Cc1cccc2c(-c3cc(CN4CCCCC4)ccc3C(F)(F)F)cccc12)C(=O)O [Compound 689] : reported IC50 = 10 to 100 nM

For record COc1ccc(CN2CC3CCC(C2)O3)c(OC)c1-c1cccc2c(C[C@H](NC(=O)C3(C(F)(F)F)CCN(CC(F)(F)F)CC3)C(=O)O)cccc12 [Compound 845] the listed IC50 is 10 to 100 nM

So, COc1ccc(CCN2CCCCC2)cc1-c1cccc2c(C[C@H](NC(=O)C3(C(F)(F)F)CCN(CC(F)(F)F)CC3)C(=O)O)cccc12 [Compound 731] ? Its IC50 was < 10 nM

IC50 reading for CN(C)CCc1cccc2c(-c3cccc4c(C[C@H](NC(=O)C5(C(F)(F)F)CCN(CC(F)(F)F)CC5)C(=O)O)cccc34)nccc12 [Compound 1042] : < 10 nM
